tested on: BB30-HNC; assay: cells; type: functional, cell-based, Homo sapiens; details: Homo sapiens, BB30-HNC;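 also: growth inhibition of the cultured cell line, read out by a cell viability assay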
Description: SANGER: Inhibition of human BB30-HNC cell growth in a cell viability assay.
Here, each record is paired with measured pIC50 data.
In plain terms, pIC50 is the concentration in mol/L turned into minus its base-10 logarithm.

{"molecule": "Nc1ccccc1NC(=O)c1ccc(CNC(=O)OCc2cccnc2)cc1 [ENTINOSTAT]", "observed.property": "pIC50", "experimental.value": 5.86}
{"molecule": "O=C1NC(=O)c2c1c(-c1ccccc1Cl)cc1[nH]c3ccc(O)cc3c21", "observed.property": "pIC50", "experimental.value": 5.87}
{"molecule": "COc1cc(N2CCC(N3CCN(C)CC3)CC2)ccc1Nc1ncc(Cl)c(Nc2ccccc2S(=O)(=O)C(C)C)n1 [TAE-684]", "observed.property": "pIC50", "experimental.value": 5.95}
{"molecule": "CO[C@@H]1[C@H](N(C)C(=O)c2ccccc2)C[C@H]2O[C@]1(C)n1c3ccccc3c3c4c(c5c6ccccc6n2c5c31)C(=O)NC4 [MIDOSTAURIN]", "observed.property": "pIC50", "experimental.value": 6.49}

Consider now this further molecule.
pIC50 lookup needed for COc1ccc(-c2cc3nccn3c(Nc3ncccc3C(N)=O)n2)cc1OC , thanks. 5.55

###

Here, each record is paired with measured pIC50 data.
test system: Kasumi 1; experiment: cells; format: functional, cell-based, Homo sapiens; conditions: Homo sapiens, Kasumi 1
Description: SANGER: Inhibition of human KASUMI-1 cell growth in a cell viability assay.
pIC50: −log10 of the molar value.

Below are worked cases with known answers.
{"smiles.notation": "CN(NC(=O)CC(=O)NN(C)C(=S)c1ccccc1)C(=S)c1ccccc1", "pIC50": "< 6.70"}
{"smiles.notation": "O=S(=O)(O)c1ccc2cc(/N=N/c3cc(S(=O)(=O)O)c4cccnc4c3O)ccc2c1", "pIC50": "< 4.80"}
{"smiles.notation": "Nc1ccccc1NC(=O)c1ccc(CNC(=O)OCc2cccnc2)cc1", "pIC50": "< 5.30"}
{"smiles.notation": "NC(=O)c1cccc(-c2cc(Nc3ccc(OC(F)(F)F)cc3)ncn2)c1", "pIC50": "< 5.89"}

Consider now this further compound.
pIC50 lookup needed for COc1ccc(N(C(=O)Oc2c(C)cccc2C)c2ccnc(Nc3ccc(N4CCN(C)CC4)cc3)n2)c(OC)c1 , thanks. < 5.29

###

system: NCI-H1770; experiment: cells; type: functional, cell-based, Homo sapiens; conditions: Homo sapiens, NCI-H1770;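 also: growth inhibition of NCI-H1770 cells determined with a viability readout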
Description: SANGER: Inhibition of human NCI-H1770 cell growth in a cell viability assay.
observed.property: IC50

{"smiles.notation": "COc1ccc(-c2cc3nccn3c(Nc3ncccc3C(N)=O)n2)cc1OC", "study.target": "NCI-H1770", "experimental.value": "2.61 µM"}
{"smiles.notation": "Cc1ccc(C(=O)Nc2ccc(CN3CCN(C)CC3)c(C(F)(F)F)c2)cc1C#Cc1cnc2cccnn12", "study.target": "NCI-H1770", "experimental.value": "> 0.512 µM"}

Any idea what IC50 came out for Cc1ccc(-n2nc(C(C)(C)C)cc2NC(=O)Nc2ccc(OCCN3CCOCC3)c3ccccc23)cc1 on NCI-H1770? > 10 µM

Now consider CCCCCCCCCCCC1=C(O)C(=O)C=C(O)C1=O . > 32 µM

Now consider Nc1ccccc1NC(=O)c1ccc(CNC(=O)OCc2cccnc2)cc1 . > 5 µM

###

test system: ES3; assay: cells; assay type: functional, cell-based, Homo sapiens; conditions: Homo sapiens, ES3;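 also: growth inhibition of ES3 cells, read out with a cell viability assay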
Description: SANGER: Inhibition of human ES3 cell growth in a cell viability assay.
pIC50: −log10 of the molar value.
observed.property: pIC50

Below are worked cases with known answers.
{"compound": "Nc1ccccc1NC(=O)c1ccc(CNC(=O)OCc2cccnc2)cc1 [ENTINOSTAT]", "observed.property": "pIC50", "experimental.value": "< 5.30"}
{"compound": "CC1=C(/C=C/C(C)=C/C=C/C(C)=C/C(=O)O)C(C)(C)CCC1 [TRETINOIN]", "observed.property": "pIC50", "experimental.value": "< 5.00"}
{"compound": "COc1cc(N2CCC(N3CCN(C)CC3)CC2)ccc1Nc1ncc(Cl)c(Nc2ccccc2S(=O)(=O)C(C)C)n1 [TAE-684]", "observed.property": "pIC50", "experimental.value": "< 5.70"}

Consider now this further compound.
pIC50 lookup needed for C/C(=C\c1csc(C)n1)[C@@H]1C[C@@H]2O[C@]2(C)CCC[C@H](C)[C@H](O)[C@@H](C)C(=O)C(C)(C)[C@@H](O)CC(=O)O1 [PATUPILONE] , thanks. 7.82

###

tested on: MN-60; assay: cells; type: functional, cell-based, Homo sapiens; settings: Homo sapiens, MN-60;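 also: growth inhibition of the MN-60 cell line, determined with a cell viability assay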
Description: SANGER: Inhibition of human MN-60 cell growth in a cell viability assay.
pIC50: −log10 of the molar value.
Here, each record is paired with measured pIC50 data.

Below are worked cases with known answers.
{"smiles.notation": "NC(=O)Nc1cc(-c2cccc(F)c2)sc1C(=O)N[C@H]1CCCNC1", "study.target": "MN-60", "pIC50": 6.14}
{"smiles.notation": "CN(C)CCOc1ccc(-c2nc(-c3ccncc3)c(-c3ccc4c(c3)CC/C4=N\\O)[nH]2)cc1", "study.target": "MN-60", "pIC50": "< 5.30"}
{"smiles.notation": "Cc1ccc(NC(=O)c2ccc(CN3CCN(C)CC3)cc2)cc1Nc1nccc(-c2cccnc2)n1", "study.target": "MN-60", "pIC50": "< 5.70"}
{"smiles.notation": "COc1cc(N2CCC(N3CCN(C)CC3)CC2)ccc1Nc1ncc(Cl)c(Nc2ccccc2S(=O)(=O)C(C)C)n1", "study.target": "MN-60", "pIC50": "< 5.70"}
{"smiles.notation": "C[C@@H](Oc1cc(-c2cnn(C3CCNCC3)c2)cnc1N)c1c(Cl)ccc(F)c1Cl", "study.target": "MN-60", "pIC50": "< 5.70"}
{"smiles.notation": "O=C1NC(=O)c2c1c(-c1ccccc1Cl)cc1[nH]c3ccc(O)cc3c21", "study.target": "MN-60", "pIC50": 5.92}
{"smiles.notation": "CC1(C)CCC(c2ccc(Cl)cc2)=C(CN2CCN(c3ccc(C(=O)NS(=O)(=O)c4ccc(N[C@H](CCN5CCOCC5)CSc5ccccc5)c(S(=O)(=O)C(F)(F)F)c4)cc3)CC2)C1", "study.target": "MN-60", "pIC50": "< 5.70"}

Consider now this further compound.
pIC50 lookup needed for C/C(=C\c1csc(C)n1)[C@@H]1C[C@@H]2O[C@]2(C)CCC[C@H](C)[C@H](O)[C@@H](C)C(=O)C(C)(C)[C@@H](O)CC(=O)O1 , thanks. < 7.49

###

tested on: CAL-51; assay: cells; type: functional, cell-based; conditions: Homo sapiens;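 also: human CAL-51 cell line, growth inhibition read out via a cell viability assay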
Description: SANGER: Inhibition of human CAL-51 cell growth in a cell viability assay.
Here, each record is paired with measured IC50 data.
Give just the numeric value; µM need not be written.

{"smiles.notation": "COc1ccc(-c2cc3nccn3c(Nc3ncccc3C(N)=O)n2)cc1OC", "IC50 (µM)": 3.02}
{"smiles.notation": "CCCCCCCCCCCC1=C(O)C(=O)C=C(O)C1=O", "IC50 (µM)": 5.37}

IC50 lookup needed for C/C(=C\c1csc(C)n1)[C@@H]1C[C@@H]2O[C@]2(C)CCC[C@H](C)[C@H](O)[C@@H](C)C(=O)C(C)(C)[C@@H](O)CC(=O)O1 , thanks. 0.00166

Now consider NC(=O)Nc1cc(-c2cccc(F)c2)sc1C(=O)N[C@H]1CCCNC1 . 0.514

###

system: NOMO-1; test: cells; assay type: functional, cell-based, Homo sapiens; conditions: Homo sapiens, NOMO-1;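 also: growth inhibition of human NOMO-1 cells measured by a cell viability assay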
Description: SANGER: Inhibition of human NOMO-1 cell growth in a cell viability assay.
pIC50: −log10 of the molar value.
observed.property: pIC50

Below are worked cases with known answers.
{"compound": "CN(C)CCOc1ccc(-c2nc(-c3ccncc3)c(-c3ccc4c(c3)CC/C4=N\\O)[nH]2)cc1 [SB590885]", "study.target": "NOMO-1", "observed.property": "pIC50", "experimental.value": "< 5.30"}
{"compound": "O=C1NC(=O)c2c1c(-c1ccccc1Cl)cc1[nH]c3ccc(O)cc3c21", "study.target": "NOMO-1", "observed.property": "pIC50", "experimental.value": "< 5.70"}

Any idea what pIC50 came out for O=S(=O)(O)c1ccc2cc(/N=N/c3cc(S(=O)(=O)O)c4cccnc4c3O)ccc2c1 on NOMO-1? < 4.80

Now consider COc1cc(N2CCC(N3CCN(C)CC3)CC2)ccc1Nc1ncc(Cl)c(Nc2ccccc2S(=O)(=O)C(C)C)n1 [TAE-684] . < 5.70

Now consider COC(=O)[C@H](CCSC)NC(=O)c1ccc(NC[C@@H](N)CS)cc1-c1ccccc1 . < 5.99

Now consider Cc1ccc(NC(=O)c2ccc(CN3CCN(C)CC3)cc2)cc1Nc1nccc(-c2cccnc2)n1 [IMATINIB] . < 5.70

Now consider Cc1ccc(C(=O)Nc2ccc(CN3CCN(C)CC3)c(C(F)(F)F)c2)cc1C#Cc1cnc2cccnn12 [PONATINIB] . < 6.29

Now consider NC(=O)c1ccc(N(C(N)=O)c2c(F)cccc2F)nc1-c1ccc(F)cc1F [VX-702] . < 5.70

Data credit: ChEMBL document CHEMBL1201861
